Data provenance is ChEMBL document CHEMBL5303304.

Test system: HEK-293T
Assay: Incucyte cell viability with HEK293T; also: unitless GR value; below 1 slowed growth and below 0 cell loss
Type: toxicity, cell-based
Conditions: human, 24 h, 10 µM, compound concentration 10 uM, replicate number 2
// reported Growth Rate per item

- SMILES_STRUCTURE: "Nc1ncnc2[nH]c(-c3ccccc3)nc12"
  Growth Rate: 0.78
- SMILES_STRUCTURE: "COc1ccc(C(F)(F)F)cc1NC(=O)Nc1ccc(Oc2cc(C)nc(N)n2)c2ccccc12"
  Growth Rate: 0.81
- SMILES_STRUCTURE: "CN(C)C/C=C/C(=O)Nc1cccc(C(=O)Nc2ccc(Nc3nccc(-c4cccnc4)n3)cc2)c1"
  Growth Rate: -0.37
- SMILES_STRUCTURE: "CCN1C(=CC(C)=O)Sc2ccc(OC)cc21"
  Growth Rate: 0.46
- SMILES_STRUCTURE: "O=S(=O)(Nc1ccc(C(O)(C(F)(F)F)C(F)(F)F)cc1)c1cccs1"
  Growth Rate: 0.9
- SMILES_STRUCTURE: "Cl.O=c1cc(C2CCNCC2)n2nc3cccc(Cl)c3c2[nH]1"
  Growth Rate: 0.91
- SMILES_STRUCTURE: "CC(C)c1cnn2c(NCc3ccccc3)cc(NCCCCCCN)nc12.Cl"
  Growth Rate: 0.66
- SMILES_STRUCTURE: "O=C(CNCc1cc2ccccc2[nH]1)N[C@H]1CC[C@@H](c2nc3ccccc3[nH]2)CC1"
  Growth Rate: 0.89

* * *

System: Fibroblast
Experiment: Incucyte cell viability with human fibroblast; also: unitless GR value; below 1 slowed growth and below 0 cell loss
Format: toxicity, cell-based
Settings: 6 h, 10 µM, compound concentration 10 uM, replicate number 1
In this scheme, each record receives a class according to its Growth Rate; the ranges are range A (below 0.2), range B (0.2 to below 0.6), range C (0.6 or more)

- MOLECULE: "CCS(=O)(=O)Nc1cccc(Oc2cc(F)cc(Nc3ccc(I)cc3F)c2NS(=O)(=O)C2CC2)c1"
  LABEL_VALUE: "range B"
- MOLECULE: "CC1CCN(c2ccnc(NCc3cn(C)cn3)n2)CC1 [TP-040]"
  LABEL_VALUE: "range A"
- MOLECULE: "CCCCC/C=C/C=C1/C(=O)C=C[C@@H]1C/C=C\\CCCC(=O)O"
  LABEL_VALUE: "range C"
- MOLECULE: "CNC(=O)c1c(F)cccc1Nc1nc(Nc2cc3c(cc2OC)CCN3C(=O)CN(C)C)nc2[nH]ccc12"
  LABEL_VALUE: "range B"
- MOLECULE: "CNC(=O)COc1cc2cc(Nc3nc(N4C[C@H](C)C[C@H](C)C4)ncc3Cl)ccc2n(C)c1=O"
  LABEL_VALUE: "range C"
- MOLECULE: "CN1C(=O)Cc2ccc(-c3ccc(C[C@@H](C#N)NC(=O)[C@@H]4N[C@H]5CC[C@@H]4C5)c(F)c3)cc21"
  LABEL_VALUE: "range B"
- MOLECULE: "Cc1nc(-c2ccc(C(F)(F)F)cc2)sc1C(=O)NCc1ccc(OC(C)(C)C(=O)O)cc1 [GW590735]"
  LABEL_VALUE: "range C"
- MOLECULE: "CCS(=O)(=O)Nc1cccc(Oc2cncc(Nc3ccc(I)cc3F)c2C(N)=O)c1"
  LABEL_VALUE: "range C"
- MOLECULE: "Cc1c(NC(=O)c2cccn(-c3ccc(F)cc3)c2=O)ccc(Oc2ccnc(NC(=O)C3CC3)c2)c1C"
  LABEL_VALUE: "range B"
- MOLECULE: "COc1cc([N+](=O)[O-])ccc1NC(=O)c1ccccc1O"
  LABEL_VALUE: "range A"
- MOLECULE: "Clc1ccccc1C(c1ccccc1)(c1ccccc1)n1cccn1"
  LABEL_VALUE: "range C"
- MOLECULE: "CC[C@@]1(c2ccccc2)NC(=O)N(Cc2ccccc2)C1=O"
  LABEL_VALUE: "range A"
- MOLECULE: "O=C(O)CCCCN(CCc1ccccc1OCc1ccc(CCc2ccccc2)cc1)Cc1ccc(C(=O)O)cc1"
  LABEL_VALUE: "range C"
- MOLECULE: "CCC(C(=O)Nc1ccc(-c2cc3ccccc3s2)c(C(N)=O)c1)c1nccs1 (centres undefined)"
  LABEL_VALUE: "range B"
- MOLECULE: "CC(C)(O)c1cn(-c2ccc(-c3cccc(S(C)(=O)=O)c3)cc2)c(C(C)(C)c2ccccc2Cl)n1 [BMS-779788]"
  LABEL_VALUE: "range A"
- MOLECULE: "NC(=O)OC[C@H](NC(=O)Cn1nc(-c2ccc(Cl)cc2)n(C[C@H](O)C(F)(F)F)c1=O)c1cccc(C(F)(F)F)c1"
  LABEL_VALUE: "range B"
- MOLECULE: "COc1c(NC(=O)c2cc3cccc(Oc4ccnc(C(=O)N5CCN(C)CC5)c4)c3n2C)cc(C(C)(C)C)cc1NS(C)(=O)=O"
  LABEL_VALUE: "range A"
- MOLECULE: "COc1cc(C)c(S(=O)(=O)N(C)CCOCC(=O)N(C)[C@H]2CCC[C@@H](N3CCN(C)CC3)C2)c(C)c1.O=C(O)C(O)C(O)C(=O)O"
  LABEL_VALUE: "range C"
